Numbers sourced from patent US20230126447A1.

Assay method text: Ocular tissue and plasma pharmacokinetics, 50 mg/kg BID oral, Dutch Belted rabbits (Example 4/5)
Type: in vivo
Condition parameters: male, Dutch Belted, rabbit, choroid-RPE, oral, 50 mg/kg, DB rabbits, Day 15, 50 mg/kg BID, 168 hr; read-out: Mean Choroid-RPE Concentration
Parameter measured: concentration at 168 h (ng/g)
Kindly provide the numeric value in ng/g only, without the unit symbol.

The recorded concentration at 168 h for entry CC(=O)c1nn(CC(=O)N2C[C@H](F)C[C@H]2C(=O)Nc2cccc(Br)n2)c2ccc(-c3cnc(C)nc3)cc12 [Compound 1] equals 645

###

Assay method text: Ocular tissue and plasma pharmacokinetics, 15 mg/kg single and BID oral, Dutch Belted rabbits (Example 3/5)
Format: in vivo
Condition parameters: Dutch Belted, rabbit, retina, po, 15 mg/kg, DB rabbit, 15 mg/kg BID oral, Day 15, 96 h; read-out: Mean retina concentration
Parameter measured: concentration at 96 h (ng/g)
Kindly provide the numeric value in ng/g only, without the unit symbol.

The recorded concentration at 96 h for entry CC(=O)c1nn(CC(=O)N2C[C@H](F)C[C@H]2C(=O)Nc2cccc(Br)n2)c2ccc(-c3cnc(C)nc3)cc12 equals 28.1

###

Assay method text: Ocular tissue and plasma pharmacokinetics, 15 mg/kg single and BID oral, Dutch Belted rabbits (Example 3/5)
Type: in vivo
Condition parameters: Dutch Belted, rabbit, iris-ciliary body, po, 15 mg/kg, DB rabbit, 15 mg/kg single oral dose, Day 1, 168 h; read-out: Mean Iris-Ciliary Body concentration
Parameter measured: concentration at 168 h
Record the result as number plus unit.

The recorded concentration at 168 h for entry CC(=O)c1nn(CC(=O)N2C[C@H](F)C[C@H]2C(=O)Nc2cccc(Br)n2)c2ccc(-c3cnc(C)nc3)cc12 equals 27.1 ng/g

###

Assay method text: Ocular tissue distribution and pharmacokinetics, 7.5 and 15 mg/kg oral, pigmented Dutch Belted rabbits (Example 7)
Type: in vivo
Condition parameters: Dutch Belted, rabbit, choroid-RPE, oral, […], DB rabbits, Day 1, […] single dose, 12 hr; read-out: Mean Choroid-RPE Concentration
Parameter measured: concentration at 12 h (ng/g)
Kindly provide the numeric value in ng/g only, without the unit symbol.

The recorded concentration at 12 h for entry CC(=O)c1nn(CC(=O)N2C[C@H](F)C[C@H]2C(=O)Nc2cccc(Br)n2)c2ccc(-c3cnc(C)nc3)cc12 equals 260

###

Assay method text: Ocular tissue and plasma pharmacokinetics, 50 mg/kg BID oral, Dutch Belted rabbits (Example 4/5)
Format: in vivo
Condition parameters: male, Dutch Belted, po; Iris-Ciliary Body, DB rabbit, 50 mg/kg BID, Day 15
Parameter measured: Cmax (ng/g)
Kindly provide the numeric value in ng/g only, without the unit symbol.

The recorded Cmax for entry CC(=O)c1nn(CC(=O)N2C[C@H](F)C[C@H]2C(=O)Nc2cccc(Br)n2)c2ccc(-c3cnc(C)nc3)cc12 equals 11500

###

Assay method text: Ocular tissue distribution and pharmacokinetics, 7.5 and 15 mg/kg oral, pigmented Dutch Belted rabbits (Example 7)
Format: in vivo
Condition parameters: Dutch Belted, rabbit, retina, oral, 15 mg/kg BID, DB rabbits, Day 15, 15 mg/kg BID, 24 hr; read-out: Mean Retina Concentration
Parameter measured: concentration at 24 h (ng/g)
Kindly provide the numeric value in ng/g only, without the unit symbol.

The recorded concentration at 24 h for entry CC(=O)c1nn(CC(=O)N2C[C@H](F)C[C@H]2C(=O)Nc2cccc(Br)n2)c2ccc(-c3cnc(C)nc3)cc12 equals 139

###

Assay method text: Phase 1 single ascending dose plasma pharmacokinetics in healthy volunteers
Assay type: in vivo, human
Condition parameters: human, po, 600 mg, Group 2, 600 mg single oral dose, Mean (N 6), read-out: Tmax
Parameter measured: Tmax (h)
Kindly provide the numeric value in h only, without the unit symbol.

The recorded Tmax for entry CC(=O)c1nn(CC(=O)N2C[C@H](F)C[C@H]2C(=O)Nc2cccc(Br)n2)c2ccc(-c3cnc(C)nc3)cc12 equals 1.63

###

Assay method text: Ocular tissue and plasma pharmacokinetics, 15 mg/kg oral, New Zealand White rabbits (Example 3/5)
Assay type: in vivo
Condition parameters: New Zealand White, plasma; NZW rabbit, 15 mg/kg single oral dose, Day 1, 24 h; read-out: Mean plasma concentration
Parameter measured: concentration at 24 h (ng/mL)
Kindly provide the numeric value in ng/mL only, without the unit symbol.

The recorded concentration at 24 h for entry CC(=O)c1nn(CC(=O)N2C[C@H](F)C[C@H]2C(=O)Nc2cccc(Br)n2)c2ccc(-c3cnc(C)nc3)cc12 [Compound 1] equals 11.1

###

Assay method text: Ocular tissue distribution and pharmacokinetics, 15 mg/kg BID oral, nonpigmented New Zealand White rabbits (Example 7)
Format: in vivo
Condition parameters: New Zealand White, rabbit, iris-ciliary body (ICB); ICB (OU), male NZW rabbits, Group 4, Day 15, 15 mg/kg/dose BID oral (30 mg/kg/day)
Parameter measured: Tmax (h)
Kindly provide the numeric value in h only, without the unit symbol.

The recorded Tmax for entry CC(=O)c1nn(CC(=O)N2C[C@H](F)C[C@H]2C(=O)Nc2cccc(Br)n2)c2ccc(-c3cnc(C)nc3)cc12 [Compound 1] equals 1

###

Assay method text: Ocular tissue and plasma pharmacokinetics, 50 mg/kg BID oral, Dutch Belted rabbits (Example 4/5)
Format: in vivo
Condition parameters: male, Dutch Belted, rabbit, vitreous humor, po, 50 mg/kg, DB rabbit, 50 mg/kg BID oral, Day 15, 0 h; read-out: Vitreous concentration
Parameter measured: concentration at 0 h (ng/g)
Kindly provide the numeric value in ng/g only, without the unit symbol.

The recorded concentration at 0 h for entry CC(=O)c1nn(CC(=O)N2C[C@H](F)C[C@H]2C(=O)Nc2cccc(Br)n2)c2ccc(-c3cnc(C)nc3)cc12 equals 2.91

###

Assay method text: Ocular tissue distribution and pharmacokinetics, 7.5 and 15 mg/kg oral, pigmented Dutch Belted rabbits (Example 7)
Format: in vivo
Condition parameters: Dutch Belted, rabbit, plasma, oral, […], DB rabbits, Day 15, […] BID, 0 hr; read-out: Mean Plasma Concentration
Parameter measured: concentration at 0 h (ng/mL)
Kindly provide the numeric value in ng/mL only, without the unit symbol.

The recorded concentration at 0 h for entry CC(=O)c1nn(CC(=O)N2C[C@H](F)C[C@H]2C(=O)Nc2cccc(Br)n2)c2ccc(-c3cnc(C)nc3)cc12 equals 22.2

###

Assay method text: Phase 1 single ascending dose plasma pharmacokinetics in healthy volunteers
Format: in vivo, human
Condition parameters: human, po, 1200 mg, Group 3, 1200 mg single oral dose, Mean (N 6), read-out: Tmax
Parameter measured: Tmax (h)
Kindly provide the numeric value in h only, without the unit symbol.

The recorded Tmax for entry CC(=O)c1nn(CC(=O)N2C[C@H](F)C[C@H]2C(=O)Nc2cccc(Br)n2)c2ccc(-c3cnc(C)nc3)cc12 [Compound 1] equals 2.5

###

Assay method text: Ocular tissue distribution and pharmacokinetics, 7.5 and 15 mg/kg oral, pigmented Dutch Belted rabbits (Example 7)
Format: in vivo
Condition parameters: Dutch Belted, rabbit, iris-ciliary body, oral, […], DB rabbits, Day 15, […] BID, 24 hr; read-out: Mean Iris-Ciliary Concentration
Parameter measured: concentration at 24 h (ng/g)
Kindly provide the numeric value in ng/g only, without the unit symbol.

The recorded concentration at 24 h for entry CC(=O)c1nn(CC(=O)N2C[C@H](F)C[C@H]2C(=O)Nc2cccc(Br)n2)c2ccc(-c3cnc(C)nc3)cc12 equals 184

###

Assay method text: Ocular tissue and plasma pharmacokinetics, 15 mg/kg oral, New Zealand White rabbits (Example 3/5)
Type: in vivo
Condition parameters: New Zealand White, po; Vitreous Humor, NZW rabbit, 15 mg/kg single dose, Day 1
Parameter measured: AUC(0-t) (ng·h/mL)
Kindly provide the numeric value in ng·h/mL only, without the unit symbol.

The recorded AUC(0-t) for entry CC(=O)c1nn(CC(=O)N2C[C@H](F)C[C@H]2C(=O)Nc2cccc(Br)n2)c2ccc(-c3cnc(C)nc3)cc12 equals 30.3

###

Assay method text: Ocular tissue and plasma pharmacokinetics, 15 mg/kg single and BID oral, Dutch Belted rabbits (Example 3/5)
Format: in vivo
Condition parameters: Dutch Belted, rabbit, choroid-RPE, oral, 15 mg/kg, DB rabbits, Day 1, 15 mg/kg single dose, 1 hr; read-out: Mean Choroid-RPE Concentration
Experimental: Study design including group designation and dose levels are outlined in Table 4. […] Fifteen Dutch Belted and 5 New Zealand White rabbits were used as un-dosed controls. […] The dose volume was 5 mL/kg/dose for all groups. Safety was assessed with toxicological and ophthalmic examinations including slit lamp biomicroscopy, indirect ophthalmoscopy, rebound tonometry, and ultrasonic corneal pachymetry. Analyst® software (Version 1.6.2) was used to capture the LC-MS/MS data and integrate the peak areas. […]
Parameter measured: concentration at 1 h (ng/g)
Kindly provide the numeric value in ng/g only, without the unit symbol.

The recorded concentration at 1 h for entry CC(=O)c1nn(CC(=O)N2C[C@H](F)C[C@H]2C(=O)Nc2cccc(Br)n2)c2ccc(-c3cnc(C)nc3)cc12 [Compound 1] equals 917
